System: rodent lifetime carcinogenesis bioassay, tumor incidence TD50
Assay: carcinogenic potency in animals, long-term in vivo studies, CPDB compilation (AID 1745844)
Conditions: mouse; strain NMRI; females; by gavage; site: any site (literature study); lesion: benign tumor; dosed 68 weeks; study length 75 weeks
quantity_measured: TD50 (mg/kg/day)
# output: bare number, implied unit mg/kg/day

Consider the compound shown here: "O=CNc1nc(-c2ccc([N+](=O)[O-])o2)cs1" What is its recorded TD50?
69.4

====

Tested on: rodent lifetime carcinogenesis bioassay, tumor incidence TD50
Experiment: carcinogenic potency in animals, long-term in vivo studies, CPDB compilation (AID 1745844)
Details: mouse; strain B6C3F1; females; inhaled; site: pituitary gland; lesion: pars distalis adenoma; dosed 104 weeks; study length 104 weeks
quantity_measured: TD50 (mg/kg/day)
Supply the numeric figure in mg/kg/day, leaving out any unit text.

Fill blank: measured TD50 of the molecule "C=CC(=C)Cl" is ____.
68.1

====

System: rodent lifetime carcinogenesis bioassay, tumor incidence TD50
Assay: carcinogenic potency in animals, long-term in vivo studies, CPDB compilation (AID 1745844)
Settings: rat; strain Fischer 344; males; by gavage; site: skin; lesion: squamous-cell carcinoma + squamous-cell papilloma; dosed 103 weeks; study length 104 weeks
quantity_measured: TD50
Respond with the figure and its unit, in that order.

Given the compound C=CC1CC=CCC1 (stereo unspecified) , what is its reported TD50?
769 mg/kg/day

====

System: rodent lifetime carcinogenesis bioassay, tumor incidence TD50
Experiment: carcinogenic potency in animals, long-term in vivo studies, CPDB compilation (AID 1745844)
Details: rat; strain F344/DuCrj; males; in feed; site: skin; lesion: squamous-cell carcinoma; dosed 55 weeks; study length 55 weeks
quantity_measured: TD50

Any idea what TD50 was measured for "Cn1c(N)nc2c3cccnc3ccc21" ?
4.16 mg/kg/day

====

Tested on: rodent lifetime carcinogenesis bioassay, tumor incidence TD50
Assay: carcinogenic potency in animals, long-term in vivo studies, CPDB compilation (AID 1745844)
Details: rat; strain Sprague-Dawley; males; by gavage; site: forestomach; lesion: one or several types; types not named; dosed 31 weeks; study length 90 weeks
quantity_measured: TD50

Look up TD50 for this compound: "CC(C)Oc1ccccc1OC(=O)N(C)N=O"
0.364 mg/kg/day

====

Test system: rodent lifetime carcinogenesis bioassay, tumor incidence TD50
Assay: carcinogenic potency in animals, long-term in vivo studies, CPDB compilation (AID 1745844)
Conditions: mouse; strain B6C3F1; males; inhaled; site: forestomach; lesion: squamous-cell papilloma; dosed 40 weeks; study length 104 weeks
quantity_measured: TD50 (mg/kg/day)
Could you give me the number in mg/kg/day? Just the number is fine.

Query TD50 on rodent lifetime carcinogenesis bioassay, tumor incidence TD50 for "C=CC=C"
171

====

Test system: rodent lifetime carcinogenesis bioassay, tumor incidence TD50
Test: carcinogenic potency in animals, long-term in vivo studies, CPDB compilation (AID 1745844)
Settings: mouse; strain CF-1; males; in feed; site: liver; lesion: adenoma; dosed 78 weeks; study length 78 weeks
The source made the active and inactive calls. The rule behind the calls is not given here.
quantity_measured: TD50

Endpoint output: TD50 of CC(C)NCC(O)c1ccc2ccccc2c1 (stereo unspecified) . Value?
1820 mg/kg/day (inactive)

====

System: rodent lifetime carcinogenesis bioassay, tumor incidence TD50
Assay: carcinogenic potency in animals, long-term in vivo studies, CPDB compilation (AID 1745844)
Settings: rat; strain Sprague-Dawley; males; inhaled; site: kidney; lesion: tubular-cell adenoma; dosed 104 weeks; study length 159 weeks
quantity_measured: TD50
The answer should read as a number with its unit following.

Suppose we examine the compound "ClC=C(Cl)Cl" ; what TD50 value has been reported?
29200 mg/kg/day

====

System: rodent lifetime carcinogenesis bioassay, tumor incidence TD50
Test: carcinogenic potency in animals, long-term in vivo studies, CPDB compilation (AID 1745844)
Conditions: rat; strain Fischer 344; females; by gavage; site: palate + pharynx; lesion: squamous-cell carcinoma; dosed 91 weeks; study length 105 weeks
quantity_measured: TD50 (mg/kg/day)
Numbers only; they are read as mg/kg/day.

Need TD50 of "ClCC(Cl)CCl" , thanks.
8.87

====

System: rodent lifetime carcinogenesis bioassay, tumor incidence TD50
Assay: carcinogenic potency in animals, long-term in vivo studies, CPDB compilation (AID 1745844)
Details: mouse; strain B6C3F1; males; in feed; site: liver; lesion: hepatocellular carcinoma; dosed 60 weeks; study length 72 weeks
quantity_measured: TD50

Recorded TD50 for ClC1=C(Cl)C2(Cl)C3C(Cl)C(Cl)CC3C1(Cl)C2(Cl)Cl (stereo unspecified) , please?
2.67 mg/kg/day

====

Test system: rodent lifetime carcinogenesis bioassay, tumor incidence TD50
Test: carcinogenic potency in animals, long-term in vivo studies, CPDB compilation (AID 1745844)
Details: rat; strain NBL/Cr; males; in drinking water; site: kidney/pelvis; lesion: transitional-cell carcinoma; dosed 102 weeks; study length 102 weeks
quantity_measured: TD50 (mg/kg/day)
Use mg/kg/day as the unit, but write only the number.

# TD50 lookup, item "[Cl][Cd][Cl]"
584

====

Tested on: rodent lifetime carcinogenesis bioassay, tumor incidence TD50
Experiment: carcinogenic potency in animals, long-term in vivo studies, CPDB compilation (AID 1745844)
Conditions: rat; strain Fischer 344; females; in feed; site: tongue; lesion: squamous-cell papilloma; dosed 104 weeks; study length 105 weeks
quantity_measured: TD50
Provide a numeric answer, followed by its unit.

# TD50 lookup, item "OCC(CO)(CBr)CBr"
1360 mg/kg/day

====

System: rodent lifetime carcinogenesis bioassay, tumor incidence TD50
Experiment: carcinogenic potency in animals, long-term in vivo studies, CPDB compilation (AID 1745844)
Conditions: rat; strain Sprague-Dawley; males; by gavage; site: nasal cavity; lesion: several types; types named in the paper; dosed 88 weeks; study length 88 weeks
quantity_measured: TD50

Entry "CCN(CC(F)(F)F)N=O" : reported TD50 = ?
7.34 mg/kg/day

====

Tested on: rodent lifetime carcinogenesis bioassay, tumor incidence TD50
Assay: carcinogenic potency in animals, long-term in vivo studies, CPDB compilation (AID 1745844)
Settings: monkey; strain Cynomolgus [Macaca fascicularis]; both sexes; in feed; site: colon; lesion: leiomyosarcoma; dosed 928 weeks; study length 1135 weeks
quantity_measured: TD50 (mg/kg/day)
Field format: number, assumed mg/kg/day, no unit text.

Returns the measured TD50 for the input compound. Input: "CN(N=O)C(N)=O"
34.5

====

Test system: rodent lifetime carcinogenesis bioassay, tumor incidence TD50
Test: carcinogenic potency in animals, long-term in vivo studies, CPDB compilation (AID 1745844)
Details: mouse; strain B6C3F1; males; oral dosing; site: liver; lesion: hepatoma; dosed 82 weeks; study length 82 weeks
quantity_measured: TD50

Look up TD50 with rodent lifetime carcinogenesis bioassay, tumor incidence TD50 for this compound: "CCOC(=O)C(O)(c1ccc(Cl)cc1)c1ccc(Cl)cc1"
43.8 mg/kg/day

====

Tested on: rodent lifetime carcinogenesis bioassay, tumor incidence TD50
Experiment: carcinogenic potency in animals, long-term in vivo studies, CPDB compilation (AID 1745844)
Settings: rat; strain Donryu; males; in drinking water; site: liver; lesion: neoplastic nodule; dosed 41 weeks; study length 91 weeks
quantity_measured: TD50 (mg/kg/day)
Your answer is read as mg/kg/day, so omit the unit and give the number.

Requested read-out TD50, target or system rodent lifetime carcinogenesis bioassay, tumor incidence TD50, entry "NC(=O)Cc1c([O-])on[n+]1Cc1ccccc1"
15.1

====

Test system: rodent lifetime carcinogenesis bioassay, tumor incidence TD50
Experiment: carcinogenic potency in animals, long-term in vivo studies, CPDB compilation (AID 1745844)
Conditions: mouse; strain Charles River CD1; females; by gavage; site: forestomach; lesion: several types; types named in the paper; dosed 30 weeks; study length 62 weeks
quantity_measured: TD50

Looking for the measured TD50 of "O=NN1CCCCCC1" , can you help?
5.65 mg/kg/day

====

Tested on: rodent lifetime carcinogenesis bioassay, tumor incidence TD50
Assay: carcinogenic potency in animals, long-term in vivo studies, CPDB compilation (AID 1745844)
Settings: rat; strain Fischer 344; males; by gavage; site: kidney cortex; lesion: adenoma, NOS; dosed 103 weeks; study length 105 weeks
quantity_measured: TD50

What value of measured TD50 is listed for "Nc1cc([N+](=O)[O-])ccc1O" ?
839 mg/kg/day

====

Test system: rodent lifetime carcinogenesis bioassay, tumor incidence TD50
Assay: carcinogenic potency in animals, long-term in vivo studies, CPDB compilation (AID 1745844)
Conditions: rat; strain Fischer 344; females; in drinking water; site: mammary gland; lesion: fibroadenoma; dosed 104 weeks; study length 104 weeks
quantity_measured: TD50 (mg/kg/day)
Numbers only; they are read as mg/kg/day.

Observed TD50 on rodent lifetime carcinogenesis bioassay, tumor incidence TD50 for "C=CC(N)=O" , please.
8.73

====

System: rodent lifetime carcinogenesis bioassay, tumor incidence TD50
Assay: carcinogenic potency in animals, long-term in vivo studies, CPDB compilation (AID 1745844)
Details: mouse; strain B6C3F1; males; in feed; site: liver; lesion: hepatocellular carcinoma + neoplastic nodule; dosed 80 weeks; study length 92 weeks
quantity_measured: TD50

Please look up its TD50: "COP(=O)(OC)OC(=CCl)c1cc(Cl)c(Cl)cc1Cl"
228 mg/kg/day
